Test system: SK-OV-3
experiment.notes: NCI tumour cell line growth inhibition, 48 h
Activity calls are given as the source filed them. No stated cut-off is given here; in the data, active = GI50 up to about 1.1 µM and inactive = higher.
readout.label: GI50

Check out these entries, answers already filled in.
[[record]]
compound = "CC(=O)N1CCc2c([nH]c3ccc(Br)cc23)C1c1ccccc1 (stereo unspecified)"
observed_value = "> 7.71 µM (inactive)"

[[record]]
compound = "CCOC(=O)c1c(NC(=O)c2ccccc2)c(C#N)c2n1CCCCC2"
observed_value = "> 100 µM (inactive)"

[[record]]
compound = "C1CC2CN(CCCN3CCOCC3)C(C1)O2 (stereo unspecified)"
observed_value = "> 100 µM (inactive)"

[[record]]
compound = "O=C(O)COc1ccc2c3c1C(=O)CCC3CO2 (stereo unspecified)"
observed_value = "> 100 µM (inactive)"

[[record]]
compound = "O=C(O)/C(=C/c1ccccc1[N+](=O)[O-])c1cccs1"
observed_value = "> 100 µM (inactive)"

[[record]]
compound = "O=C1NC(=O)C(F)(n2cc(F)c(=O)[nH]c2=O)C(O)N1 (stereo unspecified)"
observed_value = "> 10 µM (inactive)"

[[record]]
compound = "CCCc1cn2c(/C=N/NC(=N)N)c(-c3cccc([N+](=O)[O-])c3)nc2s1"
observed_value = "2.22 µM (inactive)"

[[record]]
compound = "Cc1sc2nc3n(c(=O)c2c1C)N=C(c1ccc([N+](=O)[O-])cc1)CS3"
observed_value = "> 100 µM (inactive)"


For each of the compounds below, note its GI50.
1. CC1(C)OP(=O)(c2ccccc2)C=C1Sc1ccc([N+](=O)[O-])cc1[N+](=O)[O-] (stereo unspecified)
2. CSc1nc(NC2OC(CO)C(O)C(O)C2O)c(N)c(=O)[nH]1 (stereo unspecified)
3. C=C(CN(C)C)C(=O)c1ccccc1

1. > 100 µM (inactive)
2. > 100 µM (inactive)
3. 21.7 µM (inactive)

----------
System: HCC 2998
experiment.notes: NCI tumour cell line growth inhibition, 48 h
The source made the active and inactive calls. Cut-off read from the data, not from the text of the source: active = GI50 up to about 1.1 µM and inactive = higher.
readout.label: GI50

For each of the compounds below, note its GI50.
1. C/C=C\C(CC(=O)NCCC1CN(C(=O)OCc2ccccc2)c2ccccc21)CC(=O)OC (stereo unspecified)
2. CCOC(=O)CN1C(=O)c2ccc(NC(=O)C(=O)O)cc2S1(=O)=O
3. O=Cc1ccc(Oc2c3ccccc3nc3ccccc23)cc1

["> 100 µM (inactive)", "> 100 µM (inactive)", "14.8 µM (inactive)"]

----------
Test system: XF498
experiment.notes: NCI tumour cell line growth inhibition, 48 h
Activity calls are given as the source filed them. Cut-off read from the data, not from the text of the source: active = GI50 up to about 1.1 µM and inactive = higher.
Exercise: state measured GI50 for each of the molecules provided.

[[record]]
molecule = "CCCCCCCCCc1cc(=O)c2c(O)cccc2o1"
measurement_target = "XF498"
observed_value = "31.2 µM (inactive)"

[[record]]
molecule = "CCOC(=O)C1S/C(=N\\c2ccc(OC)c(OC)c2)N=C1C (stereo not given)"
measurement_target = "XF498"
observed_value = "29.2 µM (inactive)"

[[record]]
molecule = "C=C1C(=O)O[C@H](c2ccoc2)C[C@@H]1[C@@]1(C)CCCC2(C)C(=O)OCC21 (stereo not given in full)"
measurement_target = "XF498"
observed_value = "> 100 µM (inactive)"

[[record]]
molecule = "N#CCc1ccc(/C(C#N)=C2/OC(=N)C(c3ccc(CC#N)cc3)C2=O)cc1 (stereo not given)"
measurement_target = "XF498"
observed_value = "> 100 µM (inactive)"


Let's switch to this molecule now.
Record for `O=C(O)[C@@H](NS(=O)(=O)c1ccc([N+](=O)[O-])cc1)c1ccccc1` under target or system XF498: GI50 reported as > 100 µM (inactive)

Entry source: ChEMBL document CHEMBL1201862
